pIC50 data for CDK2/Cyclin A2 (Homo sapiens, UniProt P24941) follow.
// pIC50 is dimensionless: -log10 of concentration (M)

Query: Report pIC50, nothing else, for this compound: `COc1cc(O)c2c(=O)cc(-c3ccc(N4CCN(C)CC4)cc3)oc2c1Oc1c(C)n[nH]c1C`
Response: 6.04

Query: Give the reported value of pIC50 for this record: `Cc1n[nH]c(C)c1Oc1c(O)cc(O)c2c(=O)cc(-c3ccc(N4CCN(C)CC4)cc3)oc12`
Response: 6.08

Query: Given `Cc1n[nH]c(C)c1Oc1c(O)cc(O)c2c(=O)cc(-c3ccc(N4CCNCC4)cc3)oc12` , respond with its pIC50.
Response: 5.98

###

This document collects pIC50 values reported for CDK9/cyclin T1 (Homo sapiens, UniProt P50750).
pIC50 is defined as minus the log10 of a concentration measured in mol/L.

Query: Specify pIC50 for `COc1cc(O)c2c(=O)cc(-c3ccc(N4CCN(C)CC4)cc3)oc2c1Oc1c(C)n[nH]c1C` and stop.
Response: 7.70

Query: Provide measured pIC50 value, entry: `Cc1n[nH]c(C)c1Oc1c(O)cc(O)c2c(=O)cc(-c3ccc(N4CCN(C)CC4)cc3)oc12`
Response: 7.90

Query: Please report the measured pIC50 for `CC(C)Oc1c(O)cc(O)c2c(=O)cc(-c3ccc(N4CCNCC4)cc3)oc12`
Response: 7.03

Query: Input `Cc1n[nH]c(C)c1Oc1c(O)cc(O)c2c(=O)cc(-c3ccc(N4CCNCC4)cc3)oc12` , output reported pIC50.
Response: 7.97

Query: Note down pIC50 recorded for `CC(C)Oc1c(O)cc(O)c2c(=O)cc(-c3ccc(N4CCN(C)CC4)cc3)oc12`
Response: 6.75

###

Measured IC50 accompanies every entry in the list below.
- Test system: HepG2
- assay_summary: cells
- study_conditions: Homo sapiens, HepG2, 72 h
- Description: Antiproliferative activity against human HepG2 cells assessed as reduction in cell viability after 72 hrs by MTT assay
Quick reminder: number only, in µM, skip the unit.

Look over these answered cases.
{"columns": ["entry_smiles", "property_name", "recorded_number"],
 "data": [
  ["O=c1cc(-c2ccc(N3CCNCC3)cc2)oc2c(OC3CCCC3)c(O)cc(O)c12", "IC50", 5.3],
  ["CC(C)Oc1c(O)cc(O)c2c(=O)cc(-c3ccc(N4CCNCC4)cc3)oc12", "IC50", 18],
  ["COc1c(O)cc(O)c2c(=O)cc(-c3cccc(N4CCN(C)CC4)c3)oc12", "IC50", 13.1]
]}

Query: Give reported IC50 for `COc1c(O)cc(O)c2c(=O)cc(-c3ccccc3Br)oc12` (HepG2)
Response: 33.5

Query: Report IC50 on HepG2 for this entry: `CC(C)Oc1c(O)cc(O)c2c(=O)cc(-c3ccc(N4CCN(C)CC4)cc3)oc12`
Response: 14.8

Query: Name the recorded IC50 of `COc1c(O)cc(O)c2c(=O)cc(-c3ccc(N4CCCNCC4)cc3)oc12` , assay system HepG2.
Response: 18.2

Query: Quote IC50 with test system HepG2 for `COc1c(O)cc(O)c2c(=O)cc(-c3cccc(N4CCNCC4)c3)oc12`
Response: 9.9

Query: Name the recorded IC50 of `O=c1cc(-c2ccc(N3CCNCC3)cc2)oc2c(OC3CCCCC3)c(O)cc(O)c12` , assay system HepG2.
Response: 22.8

Query: Consider the compound `Cc1n[nH]c(C)c1Oc1c(O)cc(O)c2c(=O)cc(-c3ccc(N4CCN(C)CC4)cc3)oc12` tested on HepG2; state its IC50.
Response: 6.3

###

Documented log10 IC50 across a set of compounds
- System: HepG2
- assay_summary: cells
- study_conditions: Homo sapiens, HepG2, 72 h
Please be aware that the numbers have been log10-transformed from IC50 in µM.

Answered cases to consult:
{"columns": ["entry_smiles", "measurement_target", "recorded_number"],
 "data": [
  ["CN1CCN(c2ccc(-c3cc(=O)c4c(O)cc(O)c(OC5CCCCC5)c4o3)cc2)CC1", "HepG2", 1.44],
  ["CN1CCC(Oc2c(O)cc(O)c3c(=O)cc(-c4ccc(N5CCN(C)CC5)cc4)oc23)CC1", "HepG2", 0.83],
  ["O=c1cc(-c2ccc(N3CCNCC3)cc2)oc2c(OCc3ccco3)c(O)cc(O)c12", "HepG2", 0.92],
  ["CN1CCN(c2ccc(-c3cc(=O)c4c(O)cc(O)c(OC5CCCC5)c4o3)cc2)CC1", "HepG2", 1.20],
  ["CN1CCN(c2ccc(-c3cc(=O)c4c(O)cc(O)c(OCc5ccco5)c4o3)cc2)CC1", "HepG2", 0.85]
]}

Please examine the following record next.
Query: Give the reported log10 IC50 for this compound. `CN1CCC(Oc2c(O)cc(O)c3c(=O)cc(-c4ccc(N5CCNCC5)cc4)oc23)CC1`
Response: 1.60

###

- Tested on: HeLa
- assay_summary: Antiproliferative activity against human HeLa cells assessed as reduction in cell viability after 72 hrs by MTT assay
- Format: functional, cell-based
property_name: IC50
Remember to quote the unit after the number.

Query: Item `COc1cc(O)c2c(=O)cc(-c3ccc(N4CCN(C)CC4)cc3)oc2c1Oc1c(C)n[nH]c1C` : provide IC50
Response: 2320 nM

###

- assay_summary: physchem
- study_conditions: buffer, pH 7.4
- Description: Hydrophobicity, log D of compound at pH 7.4
Below, each of the compounds is paired with its reported logD value.
Form: value (number only, do not type unit).

{"columns": ["entry_smiles", "recorded_number"],
 "data": [
  ["COc1cc(O)c2c(=O)cc(-c3ccc(N4CCN(C)CC4)cc3)oc2c1Oc1c(C)n[nH]c1C", 2.01]
]}

// switching to the query compound
Query: Return reported logD. Input compound: `Cc1n[nH]c(C)c1Oc1c(O)cc(O)c2c(=O)cc(-c3ccc(N4CCNCC4)cc3)oc12`
Response: 2.91

###

- assay_summary: physchem
- Description: Intrinsic solubility of compound by potentiometric titration assay
property_name: solubility (µg/mL)
Write the answer as a number in µg/mL, unit excluded.

{"columns": ["entry_smiles", "solubility (µg/mL)"],
 "data": [
  ["COc1cc(O)c2c(=O)cc(-c3ccc(N4CCN(C)CC4)cc3)oc2c1Oc1c(C)n[nH]c1C", 28]
]}

Consider now this further compound.
Query: Identify measured solubility corresponding to `Cc1n[nH]c(C)c1Oc1c(O)cc(O)c2c(=O)cc(-c3ccc(N4CCNCC4)cc3)oc12`
Response: 1

###

- assay_summary: Antiproliferative activity against human BGC803 cells assessed as reduction in cell viability after 72 hrs by MTT assay
- Format: functional, cell-based
- study_conditions: BGC803, 72 h
property_name: pIC50
Value format note: pIC50 is -log10 of concentration (mol/L); just state the number.

Query: Specify pIC50 for `COc1cc(O)c2c(=O)cc(-c3ccc(N4CCN(C)CC4)cc3)oc2c1Oc1c(C)n[nH]c1C` and stop.
Response: 5.51

###

- System: THP-1
- assay_summary: Antiproliferative activity against human THP1 cells assessed as reduction in cell viability after 72 hrs by MTT assay
- Format: functional, cell-based
- study_conditions: THP-1, 72 h
property_name: pIC50
To interpret pIC50, take it as minus log10 of a concentration measured in moles per litre.

Query: Retrieve pIC50 measured for `COc1cc(O)c2c(=O)cc(-c3ccc(N4CCN(C)CC4)cc3)oc2c1Oc1c(C)n[nH]c1C` and print it.
Response: 6.10

###

Attribute: pIC50
- System: HepG2
- assay_summary: cells
- study_conditions: Homo sapiens, HepG2, 72 h
pIC50: −log10 of the molar value.

Known results for molecules:
{"columns": ["entry_smiles", "pIC50"],
 "data": [
  ["COc1c(O)cc(O)c2c(=O)cc(-c3ccc(N4CCCC4)cc3)oc12", "< 4.00"],
  ["COc1c(O)cc(O)c2c(=O)cc(-c3ccccc3C(F)(F)F)oc12", "< 4.00"]
]}

Switching to the query record.
Query: Name the recorded pIC50 of the item `COc1c(O)cc(O)c2c(=O)cc(-c3ccccc3Cl)oc12` in your answer.
Response: < 4.00

###

- System: HepG2
- assay_summary: cells
- study_conditions: Homo sapiens, HepG2, 72 h
# note: boundary value 8 µM maps to NOT MET; IC50 below it maps to MET

Study these solved cases before continuing.
{"columns": ["compound", "measurement_target", "label_class"],
 "data": [
  ["CCN(CC)c1ccc(-c2cc(=O)c3c(O)cc(O)c(OC)c3o2)cc1", "HepG2", "MET"],
  ["COc1c(O)cc(O)c2c(=O)cc(-c3ccc(N4CCOCC4)cc3)oc12", "HepG2", "NOT MET"],
  ["Cc1n[nH]c(C)c1Oc1c(O)cc(O)c2c(=O)cc(-c3ccc(N4CCNCC4)cc3)oc12", "HepG2", "NOT MET"],
  ["COc1c(O)cc(O)c2c(=O)cc(-c3ccc([N+](=O)[O-])cc3)oc12", "HepG2", "NOT MET"],
  ["COc1c(O)cc(O)c2c(=O)cc(-c3cccc(C(F)(F)F)c3)oc12", "HepG2", "NOT MET"],
  ["O=c1cc(-c2ccc(N3CCNCC3)cc2)oc2c(OC3CCNC3)c(O)cc(O)c12 (centres undefined)", "HepG2", "NOT MET"],
  ["COc1c(O)cc(O)c2c(=O)cc(-c3cccc(Br)c3)oc12", "HepG2", "NOT MET"],
  ["COc1c(O)cc(O)c2c(=O)cc(-c3ccc(N4CCN(C)CC4)cc3)oc12", "HepG2", "MET"]
]}

Query: Dear colleague, could you confirm whether IC50 of `COc1cc(O)c2c(=O)cc(-c3ccc(N4CCN(C)CC4)cc3)oc2c1Oc1c(C)n[nH]c1C` falls below 8 µM? Thanks.
Response: MET

Query: Field: below-cutoff. Rule: recorded IC50 strictly less than 8 µM. Subject: CN1CCN(c2ccc(-c3cc(=O)c4c(O)cc(O)c(OC5CCNC5)c4o3)cc2)CC1 (centres undefined)
Response: NOT MET

Query: Lab log: compare recorded IC50 with 8 µM; is it strictly lower for `COc1c(O)cc(O)c2c(=O)cc(-c3cccc(N4CCOCC4)c3)oc12` ?
Response: NOT MET

Query: Does the reported IC50 of `COc1c(O)cc(O)c2c(=O)cc(-c3ccc(N4CCNCC4)cc3)oc12` stay below 8 µM?
Response: NOT MET

Query: Record `COc1c(O)cc(O)c2c(=O)cc(-c3cccc(N4CCCNCC4)c3)oc12` : is its IC50 strictly below 8 µM?
Response: NOT MET

These entries and their values trace back to ChEMBL document CHEMBL4364281.
